# Study System: CaMK1 (human)
# Method Notes: KINOMEscan competition binding
# Condition Description: compound 10.0 µM
Measured Parameter: kinase still bound, per cent of control (%)

[
  {
    "Compound": "CCCS(=O)(=O)Nc1ccc(F)c(C(=O)c2c[nH]c3ncc(-c4ccc(Cl)cc4)cc23)c1F",
    "Measured Parameter": "kinase still bound, per cent of control",
    "Value Measured": 25
  },
  {
    "Compound": "CN(C)C/C=C/C(=O)Nc1cccc(Nc2ncc3c(n2)N(C)c2ccccc2C(=O)N3C)c1",
    "Measured Parameter": "kinase still bound, per cent of control",
    "Value Measured": 49
  },
  {
    "Compound": "CCOc1cc2ncc(C#N)c(Nc3ccc(OCc4ccccn4)c(Cl)c3)c2cc1NC(=O)/C=C/CN(C)C",
    "Measured Parameter": "kinase still bound, per cent of control",
    "Value Measured": 88
  },
  {
    "Compound": "Cc1cc([C@@H](C)Nc2ccccc2C(=O)O)c2nc(N3CCOCC3)cc(=O)n2c1",
    "Measured Parameter": "kinase still bound, per cent of control",
    "Value Measured": 100
  },
  {
    "Compound": "OCCCNc1cc(-c2ccnc(Nc3cccc(Cl)c3)n2)ccn1",
    "Measured Parameter": "kinase still bound, per cent of control",
    "Value Measured": 100
  },
  {
    "Compound": "COc1cc(C(=O)NC2CCN(C)CC2)ccc1Nc1ncc2c(n1)N(C1CCCC1)C(C)CC(=O)N2C (centres undefined)",
    "Measured Parameter": "kinase still bound, per cent of control",
    "Value Measured": 100
  },
  {
    "Compound": "C=CC(=O)Nc1cccc(Oc2nc(Nc3ccc(N4CCN(C)CC4)cc3OC)ncc2Cl)c1",
    "Measured Parameter": "kinase still bound, per cent of control",
    "Value Measured": 100
  },
  {
    "Compound": "C[C@@H](Oc1cc(-n2cnc3ccc(CN4CCN(C)CC4)cc32)sc1C(N)=O)c1ccccc1C(F)(F)F",
    "Measured Parameter": "kinase still bound, per cent of control",
    "Value Measured": 90
  },
  {
    "Compound": "O=C(NOC[C@H](O)CO)c1ccc(F)c(F)c1Nc1ccc(I)cc1F",
    "Measured Parameter": "kinase still bound, per cent of control",
    "Value Measured": 98
  }
]

* * *

# Tested on: FLT3 (human), P36888 [ITD]
# Sequence (P36888 whole entry, looked up, change not shown): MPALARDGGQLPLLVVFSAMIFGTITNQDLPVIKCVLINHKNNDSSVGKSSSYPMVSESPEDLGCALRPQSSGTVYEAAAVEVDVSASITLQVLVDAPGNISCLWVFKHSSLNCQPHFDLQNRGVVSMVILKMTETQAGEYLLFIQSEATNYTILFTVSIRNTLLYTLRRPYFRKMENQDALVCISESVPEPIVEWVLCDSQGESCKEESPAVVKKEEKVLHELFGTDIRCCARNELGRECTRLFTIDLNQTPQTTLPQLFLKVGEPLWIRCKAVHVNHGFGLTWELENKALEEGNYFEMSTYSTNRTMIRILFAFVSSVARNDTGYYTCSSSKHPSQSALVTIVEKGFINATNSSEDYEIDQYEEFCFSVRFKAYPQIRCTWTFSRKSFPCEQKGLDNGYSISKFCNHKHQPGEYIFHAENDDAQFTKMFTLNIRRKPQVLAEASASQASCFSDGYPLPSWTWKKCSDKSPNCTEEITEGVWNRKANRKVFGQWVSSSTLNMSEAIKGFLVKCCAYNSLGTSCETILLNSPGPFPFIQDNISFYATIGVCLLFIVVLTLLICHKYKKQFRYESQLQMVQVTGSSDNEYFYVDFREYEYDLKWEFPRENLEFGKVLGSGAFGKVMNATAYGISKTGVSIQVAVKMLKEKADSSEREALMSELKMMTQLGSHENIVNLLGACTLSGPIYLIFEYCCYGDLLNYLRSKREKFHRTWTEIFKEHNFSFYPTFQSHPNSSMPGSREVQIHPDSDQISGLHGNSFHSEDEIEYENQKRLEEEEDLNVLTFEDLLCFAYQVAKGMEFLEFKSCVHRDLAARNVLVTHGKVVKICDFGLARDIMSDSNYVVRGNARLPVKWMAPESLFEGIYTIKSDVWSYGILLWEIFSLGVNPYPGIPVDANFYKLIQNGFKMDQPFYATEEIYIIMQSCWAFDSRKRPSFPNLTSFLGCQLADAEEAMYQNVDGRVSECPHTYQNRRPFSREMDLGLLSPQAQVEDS
# Method Notes: KINOMEscan competition binding
# Condition Description: compound 10.0 µM

[
  {
    "Smiles Repr": "Cc1n[nH]c2ccc(-c3cncc(OC[C@@H](N)Cc4c[nH]c5ccccc45)c3)cc12",
    "Study System": "FLT3 (human), P36888 [ITD]",
    "kinase still bound, per cent of control, %": 0.1
  },
  {
    "Smiles Repr": "O=c1[nH]c2ccccc2n1C1CCN(Cc2ccc(-c3nc4cc5[nH]cnc5cc4nc3-c3ccccc3)cc2)CC1",
    "Study System": "FLT3 (human), P36888 [ITD]",
    "kinase still bound, per cent of control, %": 60
  },
  {
    "Smiles Repr": "Cn1c(=O)n(-c2ccc(C(C)(C)C#N)cc2)c2c3cc(-c4cnc5ccccc5c4)ccc3ncc21",
    "Study System": "FLT3 (human), P36888 [ITD]",
    "kinase still bound, per cent of control, %": 100
  },
  {
    "Smiles Repr": "C=CC(=O)Nc1cc(-n2c(=O)ccc3cnc4ccc(-c5cn[nH]c5)cc4c32)ccc1C",
    "Study System": "FLT3 (human), P36888 [ITD]",
    "kinase still bound, per cent of control, %": 2.4
  },
  {
    "Smiles Repr": "CCC(=O)N1CCN(c2ccc(-n3c(=O)ccc4cnc5ccc(-c6cnc7ccccc7c6)cc5c43)cc2C(F)(F)F)CC1",
    "Study System": "FLT3 (human), P36888 [ITD]",
    "kinase still bound, per cent of control, %": 29
  },
  {
    "Smiles Repr": "COc1cc(N2CCN(C)CC2)ccc1Nc1nc(N)c(C(=O)c2c(Cl)cccc2Cl)s1",
    "Study System": "FLT3 (human), P36888 [ITD]",
    "kinase still bound, per cent of control, %": 87
  },
  {
    "Smiles Repr": "N#C/C(=C1/Nc2ccccc2S1)c1ccnc(NCCc2cccnc2)n1",
    "Study System": "FLT3 (human), P36888 [ITD]",
    "kinase still bound, per cent of control, %": 92
  },
  {
    "Smiles Repr": "COc1cc(N2CCC(C(N)=O)CC2)ccc1Nc1nc(N)c(Cl)c(Nc2ccccc2S(=O)(=O)C(C)C)n1",
    "Study System": "FLT3 (human), P36888 [ITD]",
    "kinase still bound, per cent of control, %": 20
  },
  {
    "Smiles Repr": "N#Cc1c(NC(=O)c2cccc3ccccc23)sc2c1CCCC2",
    "Study System": "FLT3 (human), P36888 [ITD]",
    "kinase still bound, per cent of control, %": 97
  }
]
